Data provenance: PubChem BioAssay

molecules and their reported NADPH fluorescence slope
# SYSTEM_UNDER_TEST: Voltage-gated potassium channel subunit beta-2 (Rattus norvegicus)
# PROTOCOL_DESCRIPTION: KvBeta positive modulators, primary screen, biochemical, NADPH fluorescence (AID 623);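 further: fluorescence intensity change per second fitted from 20 to 320 s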
# EXPERIMENTAL_PARAMETERS: Recombinant KvBeta, NADPH fluorescence decrease slope, 10 min; at 10 µM; hits give low values
Activity calls are given as the source filed them.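 How the source made its calls: active means NADPH fluorescence slope more negative than the mean of all samples by about 3 SD, 99.7% confidence; inactive means the rest.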

Previously resolved entries follow.
MOLECULE: CC(C)(C)n1ncc2c(=O)n(CC(=O)NCc3ccc(F)cc3)cnc21
NADPH fluorescence slope: -5.3e-05 (inactive)
--
MOLECULE: COc1cccc(-c2cc(C(=O)N3CCCCCC3)no2)c1
NADPH fluorescence slope: -3.5e-05 (inactive)
--
MOLECULE: C=CCNS(=O)(=O)c1ccc2nsnc2c1
NADPH fluorescence slope: -3.2e-05 (inactive)
--
MOLECULE: O=C(Nn1c(C2CC2)nc2ccccc2c1=O)c1ccco1
NADPH fluorescence slope: 6.6e-05 (inactive)
--
MOLECULE: Cc1ccc(-c2noc(CN3C(C)CCCC3C)n2)cc1 (stereo not given)
NADPH fluorescence slope: -1.6e-05 (inactive)

Entry under review: COC(=O)C(NC(=O)c1ccccc1)(Nc1nccs1)C(F)(F)F (stereo not given) . Reported NADPH fluorescence slope?
-2.6e-05 (inactive)

Entry under review: COc1ccc(C(=O)CCN2CCCCCC2)cc1 . Reported NADPH fluorescence slope?
-0.000102 (inactive)

Entry under review: Cc1cc(C(=O)Nc2cccnc2)no1 . Reported NADPH fluorescence slope?
-5.2e-05 (inactive)

Entry under review: CCOC(=O)N1CCN(C(=O)CCc2ccc(S(=O)(=O)NCCc3ccccc3)cc2)CC1 . Reported NADPH fluorescence slope?
-9.6e-06 (inactive)

Entry under review: CC(C)N(C(=O)CSc1nnc(-c2cc3ccccc3cc2O)n1Cc1ccco1)C(C)C . Reported NADPH fluorescence slope?
-2.4e-05 (inactive)
